Biological target: hGLP-1R (Homo sapiens (Human))
Sequence (P43220 24-463): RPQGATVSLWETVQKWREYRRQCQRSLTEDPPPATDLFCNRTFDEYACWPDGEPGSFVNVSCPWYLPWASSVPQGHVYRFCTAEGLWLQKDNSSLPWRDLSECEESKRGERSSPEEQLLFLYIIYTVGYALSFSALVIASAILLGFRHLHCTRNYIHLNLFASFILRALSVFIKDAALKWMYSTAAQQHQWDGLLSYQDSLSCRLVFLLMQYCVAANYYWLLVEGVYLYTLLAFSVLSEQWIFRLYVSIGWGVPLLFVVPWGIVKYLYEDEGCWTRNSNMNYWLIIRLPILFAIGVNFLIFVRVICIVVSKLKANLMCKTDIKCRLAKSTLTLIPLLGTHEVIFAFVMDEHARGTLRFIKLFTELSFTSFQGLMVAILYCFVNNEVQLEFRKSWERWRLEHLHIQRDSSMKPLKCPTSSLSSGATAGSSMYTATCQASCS
Test: hGLP-1R cAMP assay (agonist cAMP stimulation, Flp-In-293-GLP1R cells)
Conditions: 30 min at 37° C.
Please go through the items and note down their EC50.
Answers are plain numbers, in pM.

Worked cases, answers included:
{"columns": ["Smiles data", "Target entity", "EC50 (pM)"],
 "data": [
  ["C[C@H]1c2c(nn(-c3ccc(F)c(C4CC4)c3)c2-n2ccn(-c3ccc4c(cnn4C4CC4)c3F)c2=O)CCN1C(=O)c1cc2cc(C3CCOCC3)ccc2n1[C@@]1(c2noc(=O)[nH]2)C[C@@H]1C", "hGLP-1R (Homo sapiens (Human))", 20],
  ["C[C@H]1c2c(nn(-c3ccc(F)c4c3CCC4)c2-n2ccn(-c3ccc4c(cnn4C4CC4)c3F)c2=O)CCN1C(=O)c1cc2cc(C3CCOCC3)ccc2n1[C@@]1(c2noc(=O)[nH]2)C[C@@H]1C", "hGLP-1R (Homo sapiens (Human))", 15]
]}

Task: Look up EC50 for this compound: C[C@H]1c2c(nn(-c3ccc(F)c(C4CC4)c3)c2-n2ccn(-c3ccc(CP(C)(C)=O)cc3)c2=O)CCN1C(=O)c1cc2cc(C3CCOCC3)ccc2n1[C@@]1(c2noc(=O)[nH]2)C[C@@H]1C
Output: 28
